System: Astrocyte
Procedure Summary: Increase of EAAT2 expression in mouse primary astrocytes at 10 uM after 4 hrs by Western blot analysis relative to control
Type: functional
The source made the active and inactive calls. The rule behind the calls is not given here.
Quantity: fold change (FC)

Here are 5 molecules together with their reported answers.
Sc1ccc(-c2ccccn2)nn1
inactive
Cc1ccc(Sc2ccc(-c3ccccn3)nn2)c(C)c1
1.2
Cc1ccccc1CCSc1ccc(-c2ccccn2)nn1
1.2
Clc1ccccc1CSc1ccc(-c2ccccn2)nn1
2.1
c1ccc(-c2ccc(SC3CCCc4ccccc43)nn2)nc1 (configuration not stated)
inactive

GET /values?readout=fold change (FC)&item= Oc1ccc(-c2ccccn2)nn1 1.5

Which value of fold change (FC) has been reported for Clc1ccccc1CSc1ccc(-c2ccncc2)nn1 in the records? 1.5

---

Test system: Astrocyte
Procedure Summary: Increase of EAAT2 expression in mouse primary astrocytes at 10 uM after 4 hrs by Western blot analysis relative to control
Assay type: functional
Items are presented alongside their recorded fold change (FC).

Example molecules with recorded fold change (FC):
Cc1ccccc1CS(=O)(=O)c1ccc(-c2ccccn2)nn1
2.3
Cc1ccc(CSc2ccc(-c3ccccn3)nn2)c(C)c1
1.9
Clc1ccc(CSc2ccc(-c3ccccn3)nn2)c(Cl)c1
1.8
Clc1ccccc1CCSc1ccc(-c2ccccn2)nn1
1.7
Cc1cccc(C)c1COc1ccc(-c2ccccn2)nn1
2.1

Request - read-out fold change (FC) | tested on Astrocyte | molecule Cc1ccc(-c2ccc(SCc3c(F)cccc3Cl)nn2)cc1 1.2

---

This listing pairs compounds with measured fold change (FC).
Test system: Astrocyte
Procedure Summary: Increase of EAAT2 expression in mouse primary astrocytes at 1 uM after 24 hrs by Western blot analysis relative to beta-actin protein expression
Type: functional

Past entries and their recorded results:
Clc1ccccc1CSc1ccc(-c2ccccn2)nn1
1.1
Fc1ccc(CSc2ccc(-c3ccccn3)nn2)c(F)c1
1
c1ccc(-c2ccc(SC3CCCc4ccccc43)nn2)nc1 (configuration not stated)
2.4
Clc1ccccc1CCSc1ccc(-c2ccccn2)nn1
1
Fc1cccc(Cl)c1CCSc1ccc(-c2ccccn2)nn1
1.2

For the next question, use this compound.
What measured fold change (FC) goes with CC(Sc1ccc(-c2ccccn2)nn1)c1c(F)cccc1Cl (configuration not stated) ? 1.5

---

Tested on: Astrocyte
Procedure Summary: Increase of EAAT2 expression in mouse primary astrocytes at 10 uM after 4 hrs by Western blot analysis relative to control
Format: functional
Reported fold change (FC) values follow for various molecules
// keep it numeric: no unit symbol after the value

Worked examples follow.
Cc1ccc(CSc2ccc(-c3ccccn3)nn2)cc1
2.1
Fc1ccc(Sc2ccc(-c3ccccn3)nn2)c(Cl)c1
1.3
Cc1ccccc1CSc1ccc(-c2cccnc2)nn1
1.5

Entry under review: Cc1ccccc1CSc1ccc(-c2ccccn2)nn1 . Reported fold change (FC)? 1.7

Using the record for Clc1cccc(Cl)c1CSc1ccc(-c2ccccn2)nn1 , report its fold change (FC). 1.5

Report fold change (FC) for Fc1ccc(CSc2ccc(-c3ccccn3)nn2)cc1 please. 2.5

Look up fold change (FC): Cc1ccccc1CSc1ccc(-c2ccccn2)cn1 1.3

---

Tested on: Astrocyte
Procedure Summary: Increase of EAAT2 expression in mouse primary astrocytes at 10 uM after 4 hrs by Western blot analysis relative to control
Type: functional
fold change (FC) values for the compounds below.

Fc1cccc(Cl)c1COc1ccc(-c2ccccn2)nn1
1.1

Name the reported fold change (FC) value associated with the compound Cc1ccccc1COc1ccc(-c2ccccn2)nc1 1.5

---

Test system: Astrocyte
Procedure Summary: Increase of EAAT2 expression in mouse primary astrocytes at 10 uM after 4 hrs by Western blot analysis relative to control
Assay type: functional
Quantity: fold change (FC)

Some entries whose results are on file:
Cc1ccccc1CSc1ccc(-c2ccccc2)nn1
1.1
O=S(=O)(Cc1c(F)cccc1Cl)c1ccc(-c2ccccn2)nn1
1.4
Cc1ccccc1CNc1ccc(-c2ccccn2)nn1
1.7
Cc1ccccc1COc1ccc(-c2ccccn2)nn1
2

State the recorded fold change (FC) for this entry: Cc1ccc(CSc2ccc(-c3ccncc3)nn2)cc1 1.3

---

fold change (FC) by entry:
Test system: Astrocyte
Procedure Summary: Increase of EAAT2 expression in mouse primary astrocytes at 1 uM after 24 hrs by Western blot analysis relative to beta-actin protein expression
Type: functional
# print the numeric value only

Example entries and their recorded answers appear below.
Cc1ccccc1CSc1ccc(-c2ccccn2)nn1
1
Cc1ccc(CSc2ccc(-c3ccccn3)nn2)c(C)c1
2
Clc1cccc(CSc2ccc(-c3ccccn3)nn2)c1
4
Clc1cccc(Cl)c1CSc1ccc(-c2ccccn2)nn1
3
Cc1cc(C)c(CSc2ccc(-c3ccccn3)nn2)c(C)c1
1.5

Query (compound): Cc1cccc(C)c1CSc1ccc(-c2ccccn2)nn1 ; field requested: fold change (FC) 2

Reference for the values: ChEMBL document CHEMBL1833913
